Test system: ACHN renal
assay remarks: NCI-60 one-dose screen, 48 h (100 = growth as untreated, 0 = no growth, -100 = all killed)
condition info: 10 µM unless noted
This is part of a sample that, as a whole, favours compounds with a hit. Of some 83,000 tested, about 20% had one in any assay.
metric: growth (%)
Answer format: numeric, % implied, no suffix.

Example cases with answers are listed next.
- CCOC(=O)c1c(C)[nH]c(C)c1C=O: 102
- COc1ccc(/C=C\C(=O)/C=C/c2ccc(OC)cc2)cc1: 95.5
- COC(=O)Cc1cc(COC(C)=O)ccc1C: 103
- Cc1cc(Cc2ccccc2)c(O)c(Cc2ccccc2)c1: 92.9

Input line: So what's the measured growth for this one? Clc1ccc(-c2noc(/C=C\c3ccccc3)n2)cc1
Output line: 98.3

Input line: So what's the measured growth for this one? S=c1nc2[nH]c3ccccc3c2n[nH]1
Output line: 97.2

Input line: So what's the measured growth for this one? Cc1cc2nc(C)c(C)nc2cc1C
Output line: 90.7

====

Tested on: OVCAR-3 ovarian
assay remarks: NCI-60 one-dose screen, 48 h (100 = growth as untreated, 0 = no growth, -100 = all killed)
condition info: 10 µM unless noted
Compounds without any hit were thinned out: in the full panel of roughly 83,000, 20% have a hit. Activity calls are given as the source filed them. Rule for the calls: active = growth percent below 10; inactive = the rest.
# growth per record follows

Example cases with answers are listed next.
• FC(F)(F)c1cc(NC2=NCCN=C(Nc3cc(C(F)(F)F)cc(C(F)(F)F)c3)SS2)cc(C(F)(F)F)c1 = 25.8% (inactive)
• CCCC(=O)CC(=O)c1ccccc1 = 99.4% (inactive)
• CC(=O)Nc1ccc(C(=O)c2ccc(S(=O)(=O)Nc3ccccc3)cc2)cc1 = 105% (inactive)
• O=Cc1c(O)c2ccccc2[nH]c1=O = 134% (inactive)
• NC(CSSCC(N)C(=O)O)C(=O)O (configuration not stated) = 4.66% (active)
• CCOc1ccccc1NC(=O)CCl = 95.4% (inactive)
• Cc1cc(Cc2ccccc2)c(O)c(Cc2ccccc2)c1 = 101% (inactive)
• COc1cc2c(c(OC)c1OC)-c1ccc(SC)c(=O)cc1[C@@H](NC1OC(CO)C(O)C(O)C1O)CC2 (some centres not stated) = -15.5% (active)
• COC1OC(CO)C(OC)C(O)C1O (configuration not stated) = 112% (inactive)
• Cc1c(Cl)cccc1NC(=S)NC(=O)c1ccccc1 = 103% (inactive)

Input line: So what's the measured growth for this one? CCOP(=O)(NC(c1ccccc1)c1ccccc1)OCC
Output line: 112% (inactive)

Input line: So what's the measured growth for this one? CN(C)CCOC(=O)Nc1ccc(Cc2ccc(NC(=O)OCCN(C)C)cc2)cc1
Output line: 90.4% [100 µM] (inactive)

====

# growth per record follows
Test system: SK-MEL-28 melanoma
assay remarks: NCI-60 one-dose screen, 48 h (100 = growth as untreated, 0 = no growth, -100 = all killed)
condition info: 10 µM unless noted
The panel holds about 83,000 compounds, 20% with a hit somewhere; the sample as a whole holds those more often.
Answer format: numeric, % implied, no suffix.

- BrCc1cccc(C[P+](c2ccccc2)(c2ccccc2)c2ccccc2)c1: 67.6
- O=C(Nc1c(Cl)cc(Cl)cc1Cl)ON=C1CCCCC1: 106
- COC1OC(C(O)C(O)CO)C(O)C(O)C1O (stereo not drawn): 101
- COC(c1ccc2c(c1)OCO2)C(C)Br (stereo not drawn): 103
- O=C1C=C(c2ccccc2)C(O)(c2ccccc2)C1 (stereo not drawn): 108
- O=C(O)c1cc(I)ccc1O: 113
- C#CC(O)c1ccccc1 (stereo not drawn): 109
- CC1(C)OC(=O)CC1=O: 109

Input line: So what's the measured growth for this one? CSc1nc2[nH]ncc2c(=O)[nH]1
Output line: 106

Input line: So what's the measured growth for this one? CC(=O)C1C(=O)C(=O)N(c2ccc(Cl)c(Cl)c2)C1=O (stereo not drawn)
Output line: 103

Input line: So what's the measured growth for this one? CC(=O)c1cccc(N(C)S(=O)(=O)c2ccc(C)cc2)c1
Output line: 93.6

Input line: So what's the measured growth for this one? COC1=C(OC)C(=O)C(SC/C=C(\C)CCCC(C)CCCC(C)CCCC(C)C)=CC1=O (stereo not drawn)
Output line: 40.8

Input line: So what's the measured growth for this one? O=S(=O)(O)C(C(I)I)S(=O)(=O)O
Output line: 114

====

Test system: U251 CNS
assay remarks: NCI-60 one-dose screen, 48 h (100 = growth as untreated, 0 = no growth, -100 = all killed)
condition info: 10 µM unless noted
This is part of a sample that, as a whole, favours compounds with a hit. Of some 83,000 tested, about 20% had one in any assay.
metric: growth (%)
Answer format: numeric, % implied, no suffix.

Example cases with answers are listed next.
- O=C(O)C1CCCN1C(=O)OCc1ccccc1 (centres undefined): 108
- COc1ccc(C2CCCCC2=O)cc1 (centres undefined): 99
- NC(CCl)=NCC12CC3CC(CC(C3)C1)C2: 6.8
- OCCNc1ccccc1: 97.6
- Oc1cccc(CNC2CCCCC2)c1: 106

Input line: So what's the measured growth for this one? Cc1[nH]n(-c2ccccc2)c(=O)c1C=NC(=S)C(N)=S
Output line: 100

Input line: So what's the measured growth for this one? CCN1CCCC(N2c3ccccc3Sc3ccccc32)C1 (centres undefined)
Output line: 94.6

Input line: So what's the measured growth for this one? O=C(Oc1ccccc1Cl)c1ccc(Cl)cc1Cl
Output line: 89.5

Input line: So what's the measured growth for this one? COc1cccc(C(=O)NNC(=O)c2cccc3ccccc23)c1
Output line: 102

Input line: So what's the measured growth for this one? CC(C)(C)CC1(C)NC(=O)NC1=O (centres undefined)
Output line: 111

Input line: So what's the measured growth for this one? Cc1c(Cl)cccc1N=C=S
Output line: 106

Input line: So what's the measured growth for this one? CC(=O)N(C)N=Nc1ccc(C)cc1
Output line: 106

Input line: So what's the measured growth for this one? C=CCC(O)C=C (centres undefined)
Output line: 102

Input line: So what's the measured growth for this one? COc1nc(Nc2cccc(C(F)(F)F)c2)nc(OC)n1
Output line: 89.4

====

System: HS 578T breast
assay remarks: NCI-60 one-dose screen, 48 h (100 = growth as untreated, 0 = no growth, -100 = all killed)
condition info: 10 µM unless noted
About 83,000 compounds went through this panel and 20% of them were active in at least one assay; those are over-represented in the sample as a whole.
metric: growth (%)
Answer format: numeric, % implied, no suffix.

Example cases with answers are listed next.
- CCOP(=O)(OCC)/C(=C\N1C(=O)CC(=O)NC1=S)C(=O)OC: 98.4
- CC(=O)NC(O)C(Cl)Cl (configuration not stated): 107

Input line: So what's the measured growth for this one? CCN(CC)CCCC(C)NC(=S)N/N=C(\C)c1ccccn1 (configuration not stated)
Output line: 92.6

Input line: So what's the measured growth for this one? Oc1ccc2ccccc2c1CN1CCOCC1
Output line: 112

Input line: So what's the measured growth for this one? C=CCC(OC(C)=O)c1ccc(C(C)C)cc1 (configuration not stated)
Output line: 109

Input line: So what's the measured growth for this one? CCCCOC(=O)c1ccc(NC(=O)CCl)cc1
Output line: 79.9

Input line: So what's the measured growth for this one? CCCCCCCCCc1ccc(OC(C)=O)cc1
Output line: 96.3

Input line: So what's the measured growth for this one? COc1cc2c(c(OC)c1OC)-c1ccc(SC)c(=O)cc1[C@@H](NC1OC(CO)C(O)C(O)C1O)CC2 (some centres not stated)
Output line: 28.5

Input line: So what's the measured growth for this one? CC(C)C(C)(C)C(=O)C(C)(C)C(C)(C)C
Output line: 93.9

Input line: So what's the measured growth for this one? O=C(c1ccc(Cl)cc1)N1CCCCC1
Output line: 23.2

Input line: So what's the measured growth for this one? Cc1[nH]n(-c2ccccc2)c(=O)c1C=NC(=S)C(N)=S
Output line: 92.1

Input line: So what's the measured growth for this one? C[n+]1cc2cc3c(cc2c2ccccc21)OCO3
Output line: 42.1

====

Test system: NCI-H460 lung
assay remarks: NCI-60 one-dose screen, 48 h (100 = growth as untreated, 0 = no growth, -100 = all killed)
condition info: 10 µM unless noted
The panel holds about 83,000 compounds, 20% with a hit somewhere; the sample as a whole holds those more often. Active and inactive are the calls of the source. Rule for the calls: active = growth percent below 10; inactive = the rest.
# growth per record follows

Example cases with answers are listed next.
- CN1CCCN(C(c2ccccc2)c2ccc(Br)cc2)CC1 (stereo not drawn): 82.5% (inactive)
- CC(=O)N(CCCCCCN(C(C)=O)C(C)=O)C(C)=O: 109% [100 µM] (inactive)
- CSc1cnc2ccccc2n1: 102% (inactive)
- c1ccc(-c2ccc3ccccc3c2)cc1: 102% (inactive)

Input line: So what's the measured growth for this one? CC1CN(CCO)CC(C)O1 (stereo not drawn)
Output line: 110% (inactive)

Input line: So what's the measured growth for this one? CCCCCCCCCCCCCCCCCC(=O)NCCNC(=O)CCCCCCCCCCCCCCCCC
Output line: 98.8% (inactive)

Input line: So what's the measured growth for this one? S=c1nc(-c2ccccn2)c(-c2ccccn2)n[nH]1
Output line: 112% (inactive)

Input line: So what's the measured growth for this one? Cc1ccc(NC(=O)c2ccccc2Cl)cc1
Output line: 101% (inactive)

Input line: So what's the measured growth for this one? CN(C)c1ccc2nc3ccc(=[N+](C)C)cc-3oc2c1
Output line: 35.3% (inactive)

Input line: So what's the measured growth for this one? C/C(Cc1ccccc1)=N\O
Output line: 107% (inactive)

Input line: So what's the measured growth for this one? CC(C)(C)CC1(C)NC(=O)NC1=O (stereo not drawn)
Output line: 120% (inactive)

Input line: So what's the measured growth for this one? O=C(NCc1ccccc1)/C(=C/c1ccccc1)NC(=O)c1ccccc1
Output line: 103% (inactive)

Input line: So what's the measured growth for this one? CC1CCC(C(C)(C)[N+](C)(C)C)CC1 (stereo not drawn)
Output line: 107% (inactive)

Cited source for all entries: PubChem BioAssay (NCI)
